target: Retinoic acid receptor alpha (Homo sapiens); assay: ATG_DR5_RAR_CIS: Attagene CIS-FACTORIAL HepG2 Assay for human Retinoic Acid Receptor Alpha (RARE), DR5 submotif (AID 2282934); details: HepG2 Attagene cis-factorial RARE DR5 reporter, mRNA; actives raise or lower the signal
Active and inactive are the calls of the source. Rule for the calls: active = hit-call score of the fitted dose curve at least 0.9, where 1 is the maximum; inactive = score below 0.9.
Labels: YES (active), NO (inactive)

{"Compound": "CC(C)OC(=O)Nc1ccccc1", "Group label": "NO"}
{"Compound": "C(=NC1CCCCC1)=NC1CCCCC1", "Group label": "NO"}
{"Compound": "COP(=S)(OC)Oc1c(Cl)cc(C)cc1Cl", "Group label": "NO"}
{"Compound": "CCNc1nc(NC(C)(C)C)nc(SC)n1", "Group label": "NO"}
{"Compound": "CCC(=O)C(CC(C)N(C)C)(c1ccccc1)c1ccccc1 (centres undefined)", "Group label": "NO"}
{"Compound": "C=CC(=O)OCCCCCC(C)C", "Group label": "NO"}
{"Compound": "O=P(O)(O)CN(CP(=O)(O)O)CP(=O)(O)O", "Group label": "NO"}
{"Compound": "CC(C)(c1ccccc1)c1ccc(O)c(C(C)(C)c2ccccc2)c1", "Group label": "YES"}
{"Compound": "CCCCCCCCCl", "Group label": "NO"}

----------
assay: ATG_Ets_CIS: Attagene CIS-FACTORIAL HepG2 Assay for human Erythroblast Transformation Specific (ETS) (AID 2282941); conditions: HepG2 ETS cis-reporter transcription, actives raise or lower the signal
Activity calls are given as the source filed them. Rule for the calls: active = hit-call score of the fitted dose curve at least 0.9, where 1 is the maximum; inactive = score below 0.9.
Quantity: AC50

{"Molecule": "CCOC(=O)/C=C(C)/C=C/C[C@@H](C)CCCC(C)C", "Observed measurement": "inactive"}
{"Molecule": "CCOP(=S)(OCC)Oc1nc(Cl)c(Cl)cc1Cl", "Observed measurement": "inactive"}
{"Molecule": "C[C@]12CC[C@H](O)CC1=CC[C@@H]1[C@@H]2CC[C@]2(C)C(=O)CC[C@@H]12", "Observed measurement": "inactive"}
{"Molecule": "O=C(CCl)CCl", "Observed measurement": "39.1 µM (active)"}
{"Molecule": "O=CC=O", "Observed measurement": "inactive"}
{"Molecule": "COS(=O)(=O)c1ccc(C)cc1", "Observed measurement": "inactive"}
{"Molecule": "NNC(=S)NN", "Observed measurement": "inactive"}
{"Molecule": "Clc1nc(Cl)nc(Cl)n1", "Observed measurement": "inactive"}
{"Molecule": "CCCCCCCCCl", "Observed measurement": "inactive"}
{"Molecule": "NC(=O)O", "Observed measurement": "inactive"}
{"Molecule": "CC(=O)[O][Hg][c]1ccccc1", "Observed measurement": "inactive"}
{"Molecule": "CC(C)(c1ccc(OCC2CO2)cc1)c1ccc(OCC2CO2)cc1 (stereo not drawn)", "Observed measurement": "inactive"}
{"Molecule": "CNC(=O)O/N=C/C(C)(C)S(C)=O (stereo not drawn)", "Observed measurement": "inactive"}
{"Molecule": "CCCCCCCCc1ccc(O)cc1", "Observed measurement": "inactive"}
{"Molecule": "O=Cc1cccc(Oc2ccccc2)c1", "Observed measurement": "inactive"}
{"Molecule": "O=C1CCCN1", "Observed measurement": "inactive"}
{"Molecule": "C[C@]12CCC(=O)C[C@@H]1CC[C@@H]1[C@@H]2CC[C@]2(C)[C@@H](O)CC[C@@H]12", "Observed measurement": "inactive"}
{"Molecule": "Cn1sc(Cl)cc1=O", "Observed measurement": "inactive"}
{"Molecule": "CC(=[OH+])/C=C(/C)[O-].CC(=[OH+])/C=C(/C)[O-].CC(=[OH+])/C=C(/C)[O-].[Al]", "Observed measurement": "inactive"}
{"Molecule": "C=C(C)C(=O)[O][Sn]([CH2]CCC)([CH2]CCC)[CH2]CCC", "Observed measurement": "inactive"}
{"Molecule": "CC(=O)C(Cl)C(=O)N(C)C (stereo not drawn)", "Observed measurement": "100 µM (active)"}
{"Molecule": "CC1CN1P(=O)(N1CC1C)N1CC1C (stereo not drawn)", "Observed measurement": "inactive"}
{"Molecule": "CC(Br)C(=O)O (stereo not drawn)", "Observed measurement": "inactive"}
{"Molecule": "O=C(NCO)NCO", "Observed measurement": "inactive"}
{"Molecule": "C=C(C)C#N", "Observed measurement": "inactive"}
{"Molecule": "O=[N+]([O-])c1ccc2c3c(cccc13)CC2", "Observed measurement": "inactive"}
{"Molecule": "Oc1c(I)cc(I)cc1I", "Observed measurement": "inactive"}
{"Molecule": "CC(C)(C)c1cc(O)ccc1O", "Observed measurement": "inactive"}
{"Molecule": "Oc1ccc(-c2ccccc2)cc1", "Observed measurement": "inactive"}
{"Molecule": "Nc1cccc2ccccc12", "Observed measurement": "inactive"}
{"Molecule": "CC(C)CCCCCCOC(=O)c1ccccc1C(=O)OCCCCCCC(C)C", "Observed measurement": "inactive"}
{"Molecule": "CCC1(c2ccc(N)cc2)CCC(=O)NC1=O (stereo not drawn)", "Observed measurement": "inactive"}
{"Molecule": "O=C(Cl)c1ccc(Cl)cc1", "Observed measurement": "inactive"}

----------
Read-out: CD40, CD40 (gene 958)
Experiment: BSK_LPS_CD40: BioMAP Diversity Plus: LPS Assay for CD40 Biomarker Activity (AID 2283076)
Conditions: primary human HUVEC with PBMC; actives raise or lower the signal
Procedure: BSK_LPS is a cell-based, multiplexed-readout assay that uses umbilical vein endothelium and peripheral blood mononuclear cells, a human vascular primary cell co-culture, with measurements taken at 24 hours after chemical dosing in a 96-well plate.BSK_LPS_CD40 is an assay component measured in the BSK_LPS assay. It measures CD40 antibody related to regulation of gene expression using ELISA technology.Data from the assay component BSK_LPS_CD40 was analyzed into 1 assay endpoint. […]
Activity calls are given as the source filed them. Rule for the calls: active = hit-call score of the fitted dose curve at least 0.9, where 1 is the maximum; inactive = score below 0.9.
Outcomes: TRUE (active), FALSE (inactive)

{"Mol": "CN(C)N=O", "Group label": "FALSE"}
{"Mol": "CCN1CCC2(CC1)COc1cc3c(cc12)N(C(=O)c1ccc(-c2ccc(-c4nnc(C)o4)cc2C)cc1)CC3", "Group label": "TRUE"}
{"Mol": "CC(C)(C)CC(C)(C)c1ccc(O)cc1", "Group label": "TRUE"}
{"Mol": "CCOP(=S)(OCC)SCSP(=S)(OCC)OCC", "Group label": "FALSE"}

----------
read-out: Low-density lipoprotein receptor (LDLR), LDLR (gene 3949); assay: BSK_CASM3C_LDLR: BioMAP Diversity Plus: CASM3C Assay for Low-density lipoprotein receptor (LDLR) Biomarker Activity (AID 2283045); details: primary human coronary artery smooth muscle cells; actives raise or lower the signal;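 note: LDLR protein level on the cell surface quantified by ELISA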
Calls of active or inactive are those of the source. How the source made its calls: active means hit-call score of the fitted dose curve at least 0.9, where 1 is the maximum; inactive means score below 0.9.
Outcomes: active, inactive

{"Compound": "CC(=O)OC(c1ccccc1)C(Cl)(Cl)Cl (centres undefined)", "Group label": "inactive"}
{"Compound": "CCN1CCC2(CC1)COc1cc3c(cc12)N(C(=O)c1ccc(-c2ccc(-c4nnc(C)o4)cc2C)cc1)CC3", "Group label": "active"}
{"Compound": "CCOP(=S)(OCC)SCCS(=O)(=O)CC", "Group label": "inactive"}
{"Compound": "BrCCBr", "Group label": "inactive"}
{"Compound": "O=[N+]([O-])c1ccc(O)c([N+](=O)[O-])c1", "Group label": "inactive"}
{"Compound": "ClC1(Cl)C2(Cl)C3(Cl)C4(Cl)C(Cl)(Cl)C5(Cl)C3(Cl)C1(Cl)C5(Cl)C24Cl (centres undefined)", "Group label": "active"}
{"Compound": "Nc1cccc2ccccc12", "Group label": "active"}
{"Compound": "Oc1ccc(-c2ccccc2)cc1", "Group label": "active"}
{"Compound": "CCCCCCCCC(=O)NCc1ccc(O)c(OC)c1", "Group label": "inactive"}
{"Compound": "O=[N+]([O-])c1ccc2c3c(cccc13)CC2", "Group label": "inactive"}
{"Compound": "CC12CC1(C)C(=O)N(c1cc(Cl)cc(Cl)c1)C2=O (centres undefined)", "Group label": "inactive"}
{"Compound": "Nc1ccc(-c2ccc(N)c(Cl)c2)cc1Cl", "Group label": "inactive"}
{"Compound": "NC(=S)Nc1ccccc1", "Group label": "inactive"}
{"Compound": "O=C(Nc1ccc2[nH]ccc2c1)c1cc2cc(F)ccc2n1Cc1cccc(F)c1", "Group label": "active"}
{"Compound": "CN(C)N=O", "Group label": "inactive"}
{"Compound": "Nc1ncc([N+](=O)[O-])s1", "Group label": "inactive"}
{"Compound": "O=C1C2(Cl)C3(Cl)C4(Cl)C(Cl)(Cl)C5(Cl)C3(Cl)C1(Cl)C5(Cl)C24Cl (centres undefined)", "Group label": "active"}
{"Compound": "CC1(C)Cc2cccc(O)c2O1", "Group label": "inactive"}
{"Compound": "CCOP(=S)(OCC)SCSP(=S)(OCC)OCC", "Group label": "inactive"}
{"Compound": "Oc1cccc2cccnc12", "Group label": "inactive"}
{"Compound": "CCOC(=O)/C=C(C)/C=C/C[C@@H](C)CCCC(C)C", "Group label": "active"}
{"Compound": "CCCCC(CC)CO[N+](=O)[O-] (centres undefined)", "Group label": "inactive"}
{"Compound": "O=C(O)C(Cl)(Cl)Cl", "Group label": "inactive"}
{"Compound": "COP(=S)(OC)Oc1c(Cl)cc(C)cc1Cl", "Group label": "inactive"}
